- System: Aldo-keto reductase family 1 member B1 (Rattus norvegicus)
Binned IC50; ranges: b0 = under 8 µM, b1 = from 8 µM up to 70 µM, b2 = 70 µM and over

Molecule	Label
CN(c1ccccc1C(=O)O)S(=O)(=O)c1ccc2ccccc2c1	b2
COc1ccc(S(=O)(=O)Nc2ccccc2C(=O)O)cc1	b2
O=C(O)c1ccccc1NS(=O)(=O)c1ccc(Br)cc1	b2
O=C(O)c1ccccc1NS(=O)(=O)c1ccc(Cl)cc1	b2
O=C(O)CN(c1ccccc1)S(=O)(=O)c1ccc2ccccc2c1	b0
Nc1ccc(S(=O)(=O)N(CC(=O)O)c2ccccc2)cc1	b1
O=C(O)CN(c1ccccc1Cl)S(=O)(=O)c1ccccc1	b0
Nc1ccccc1S(=O)(=O)N(CC(=O)O)c1ccccc1	b1

Exam item: Would you mind sorting Cc1ccccc1N(CC(=O)O)S(=O)(=O)c1ccccc1 into the appropriate category?
Marked response: b2

Exam item: Would you mind sorting O=C(O)CN(c1ccccc1)S(=O)(=O)c1ccc(NC(=O)c2ccccc2)cc1 into the appropriate category?
Marked response: b0

Exam item: Would you mind sorting COc1ccc(S(=O)(=O)N(CC(=O)O)c2ccccc2)cc1 into the appropriate category?
Marked response: b0

----------
The following compounds have recorded pIC50 on Aldo-keto reductase family 1 member B1 (Rattus norvegicus, UniProt P07943).
Friendly reminder that pIC50 comes from taking -log10 of the concentration in mol/L.

Recorded results for 5 compounds are shown here.
Compound	pIC50
Nc1ccccc1S(=O)(=O)NCC(=O)O	4.43
Cc1cccc(N(CC(=O)O)S(=O)(=O)c2ccccc2)c1	4.57
O=C(O)CN(c1ccccc1)S(=O)(=O)c1ccccc1	4.54
O=C(O)CNS(=O)(=O)c1ccc(Cl)cc1	3.89
O=C(O)c1ccccc1NS(=O)(=O)c1cccc2ccccc12	5.08

Next item in the queue.
Exam item: Give Aldo-keto reductase family 1 member B1 (Rattus norvegicus, UniProt P07943) pIC50 for COc1ccc(S(=O)(=O)NCC(=O)O)cc1
Marked response: 4.51

----------
- System: Aldo-keto reductase family 1 member B1 (Rattus norvegicus, UniProt P07943)
pIC50: −log10 of the molar value.
Label true (1) for high-side pIC50 (at or above 5) and false (0) for low-side pIC50 (below it).

Exam item: Determine whether this compound has pIC50 no lower than 5: CN(c1ccccc1C(=O)O)S(=O)(=O)c1ccc([N+](=O)[O-])cc1
Marked response: false (0)

Exam item: Determine whether this compound has pIC50 no lower than 5: O=C(O)C(NS(=O)(=O)c1ccc2ccccc2c1)c1ccccc1 (single isomer, unassigned; 6n)
Marked response: true (1)

Exam item: Determine whether this compound has pIC50 no lower than 5: Nc1ccc(N(CC(=O)O)S(=O)(=O)c2ccccc2)cc1
Marked response: false (0)

Exam item: Determine whether this compound has pIC50 no lower than 5: O=C(O)CN(c1ccccc1)S(=O)(=O)c1cccc([N+](=O)[O-])c1
Marked response: true (1)

Exam item: Determine whether this compound has pIC50 no lower than 5: O=C(O)[C@H](NS(=O)(=O)c1ccc([N+](=O)[O-])cc1)c1ccccc1
Marked response: false (0)

Exam item: Determine whether this compound has pIC50 no lower than 5: O=C(O)[C@@H](NS(=O)(=O)c1ccc(Cl)cc1)c1ccccc1
Marked response: true (1)

Exam item: Determine whether this compound has pIC50 no lower than 5: COc1ccc(S(=O)(=O)N(C)c2ccccc2C(=O)O)cc1
Marked response: false (0)

meta.source: ChEMBL document CHEMBL1124315
